The origin of these recorded values is patent US20050208041A1.

- assay.system: T1, purified recombinant IFNAR-1 extracellular fragment (human, UniProt P17181 28-436)
- T1 construct: extracellular domain; also called soluble IFNAR-1; soluble IFNAR
- T1 sequence (looked up): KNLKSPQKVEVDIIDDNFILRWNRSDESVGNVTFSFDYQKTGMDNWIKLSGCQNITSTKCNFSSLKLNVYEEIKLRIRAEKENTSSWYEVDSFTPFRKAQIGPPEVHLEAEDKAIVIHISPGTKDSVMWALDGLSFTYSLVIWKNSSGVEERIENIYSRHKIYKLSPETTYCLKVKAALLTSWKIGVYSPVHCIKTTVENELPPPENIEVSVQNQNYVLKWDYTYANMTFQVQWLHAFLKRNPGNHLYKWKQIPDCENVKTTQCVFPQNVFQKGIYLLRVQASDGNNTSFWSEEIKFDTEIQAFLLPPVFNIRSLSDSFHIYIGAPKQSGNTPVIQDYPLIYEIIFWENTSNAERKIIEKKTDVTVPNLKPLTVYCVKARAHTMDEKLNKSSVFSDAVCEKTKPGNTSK
- method.summary: Biacore, antibody on immobilized soluble IFNAR-1, maximal response, mean of four
measured.property: % response relative to H3K1 (%)
Give the value in % but do not write % after it.

Below, 3 binders whose answers are already recorded.
DI M3-B heavy chain with K1 light chain (antibody, V domains shown, also called DI M3-B K1) VH: EVQLLESGGGLVQPGGSLRLSCAASGFTMSTSGMGIGWIRQTPGKGLEWVAHIWWDDDKYYNPSLKARFTISRDTSKNTLYLQMNSLRAEDTAVYYCARNYYPYDAWFDYWGQGTLVTVS VL: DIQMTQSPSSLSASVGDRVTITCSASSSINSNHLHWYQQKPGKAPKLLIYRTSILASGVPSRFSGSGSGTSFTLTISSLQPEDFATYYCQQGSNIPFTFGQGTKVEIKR ... 122
M3-B heavy chain with K1-C light chain (antibody, V domains shown, also called M3-B K1-C) VH: EVQLLESGGGLVQPGGSLRLSCAFSGFTLSTSGMGIGWVRQAPGKGLEWVAHIWWDDDKYYNPSLKARFTISRDTSKNTVYLQMNSLRAEDTAVYYCARNYYPYDAWFDYWGQGTLVTVS VL: DIQMTQSPSSLSASVGDRVTITCSASTSINSNHLHWYQQKPGKAPKLLIYRTSILASGVPSRFSGSGSGTSFTLTISSLQPEDFATYYCQQGSNIPFTFGQGTKVEIKR ... 156
DI M3 heavy chain with DI K1-C light chain (antibody, V domains shown, also called DI M3 DI K1-C) VH: EVQLLESGGGLVQPGGSLRLSCAASGFTMSTSGMGIGWIRQTPGKGLEWVAHIWWDDDKYYNPSLKSRFTISKDTSKNTLYLQMNSLRAEDTAVYYCARNYYPYDAWFDYWGQGTLVTVS VL: DIQMTQSPSSLSASVGDRVTITCSASTSINSNHLHWYLQKPGKAPKALIYRTSILASGIPSRFSGSGSGTDFTLTISSLQPEDTATYYCQQGSNIPFTFGQGTKVEIKR ... 4

# next binder below
Would you mind telling me what % response relative to H3K1 value was observed for M3-B heavy chain with DI K1 light chain (antibody, V domains shown, also called M3-B DI K1) VH: EVQLLESGGGLVQPGGSLRLSCAFSGFTLSTSGMGIGWVRQAPGKGLEWVAHIWWDDDKYYNPSLKARFTISRDTSKNTVYLQMNSLRAEDTAVYYCARNYYPYDAWFDYWGQGTLVTVS VL: DIQMTQSPSSLSASVGDRATITCSASSSINSNHLHWYLQKPGKAPKALIYRTSILASGIPSRFSGSGSGTDFTLTISSLQPEDTATYYCQQGSNIPFTFGQGTKVEIKR ?
17
